The following compounds are shown together with reported activity at 10000 µM values.
tested on: S. aureus ATCC6538P; assay: Relative respiratory activity with 22 effectors (Example 3); format: cell-based, Staphylococcus aureus; settings: Staphylococcus aureus, ATCC6538P, read-out: relative %-respiratory activity

- Test smiles: "N=C(N)NCCC[C@H](N)C(=O)O"
  activity at 10000 µM / %: 132
- Test smiles: "N[C@@H](Cc1c[nH]c2ccccc12)C(=O)O"
  activity at 10000 µM / %: 139
- Test smiles: "NCCCC[C@H](N)C(=O)O"
  activity at 10000 µM / %: 159
- Test smiles: "O=CO"
  activity at 10000 µM / %: 298

---

tested on: Staphylococcus aureus ATCC 6538P; assay: Respiration assay (Example 1), electrochemical ferricyanide/DCIP mediator consumption; assay type: cell-based; conditions: effector 10 mM, area normalized
Parameter: normalized slope (μC/min*mm^2)

- Compound: "CC(O)C(=O)O (stereo not shown)"
  Unit of measure: "μC/min*mm^2"
  Assay value: 14.6
- Compound: "O=[N+]([O-])[O-].[K+] [nitrate, potassium nitrate]"
  Unit of measure: "μC/min*mm^2"
  Assay value: 4.1
- Compound: "N=C(N)NCCC[C@H](N)C(=O)O"
  Unit of measure: "μC/min*mm^2"
  Assay value: 5.3
- Compound: "CC(=O)C(=O)O"
  Unit of measure: "μC/min*mm^2"
  Assay value: 8.7

---

System: S. cerevisiae
Test: Relative respiratory activity with 22 effectors (Example 3)
Type: cell-based, Saccharomyces cerevisiae
Conditions: Saccharomyces cerevisiae; effector 10 mM, 5 μM DCIP, no effector = 100%, n = 10; read-out: relative %-respiratory activity
From the text: In this example, each microorganism is subjected to 22 different effector compounds in addition to control measurements. […] For each microorganism, duplicate measurements were made of 22 different effector compounds. In addition, duplicate measurements were made a control test containing no effector compound. One additional measurement was made of a control solution containing the microorganism with ferricyanide but without effector or DCIP. […]

- Molecule: "CC(=O)C(=O)O"
  activity at 10000 µM (%): 109
- Molecule: "O=C(O)CC(=O)O"
  activity at 10000 µM (%): 110
- Molecule: "OC[C@H]1O[C@@H]2O[C@H]3[C@H](O)[C@@H](O)[C@@H](O[C@H]4[C@H](O)[C@@H](O)[C@@H](O[C@H]5[C@H](O)[C@@H](O)[C@@H](O[C@H]6[C@H](O)[C@@H](O)[C@@H](O[C@H]7[C@H](O)[C@@H](O)[C@@H](O[C@H]8[C@H](O)[C@@H](O)[C@@H](O[C@H]1[C@H](O)[C@H]2O)O[C@@H]8CO)O[C@@H]7CO)O[C@@H]6CO)O[C@@H]5CO)O[C@@H]4CO)O[C@@H]3CO"
  activity at 10000 µM (%): 112
- Molecule: "CC(O)C(=O)O (stereo not shown)"
  activity at 10000 µM (%): 123
